Test system: Saccharomyces cerevisiae
Experiment: protein stability index of tFT-peptide fusion (C-terminal peptide) (PSI (0-1 scale)); higher = more stable (slower turnover)
Conditions: genetic background: wild type; temperature: 37 C
Response key: met means protein stability index >= 0.4; not met means protein stability index < 0.4.

Q: State whether the measured protein stability index reaches 0.4, counting equality as reaching it, for `LGDPPCRMIVVR`
Result: met

Q: Now this one: `DFFTSFSLFFFL`
Result: met

Q: Next: `RVLCLVSSLTLF`
Result: met

Q: Now this one: `CRRQLKVLKSMS`
Result: not met

Q: Next sequence: `VIAYSLLSWGDF`
Result: not met

Q: Another sequence: `PPRDPGGLFTPF`
Result: met

Q: Again, but for `PLRKYLRHLLSL`
Result: not met

Q: Thanks! And `SFSRLWSLFRCL` ?
Result: not met

Q: Lookup `AFLLVLFCCVSC`
Result: not met

Q: Same for `ALRGLWFPFSCL`
Result: not met

Q: Another sequence: `NVWCWGASCFFC`
Result: met

Q: Queued: `DVLLVVVLGRFL`
Result: met

Q: // query: `VYDVSVGVAVVG`
Result: met

Q: Next sequence: `GWRGVVLVFVLV`
Result: met

Q: // next record `RWVFAGVGLFVG`
Result: met

Q: Same question for `TMSGVTRCVLVL` please.
Result: met

Q: Param item: `RKKIRTYINENV`
Result: met

Q: Consider next the sequence `SIRVIVAVRNIS` in the same way.
Result: met

Q: Query `YLRVRRPGSALV` next
Result: met

Q: Do the same for `VAVFFFCRVFFL` please
Result: not met

Q: Follow-up entry: `VLLGYPRILSLF`
Result: not met

Q: Now consider `CVCPFCVWVSCL` .
Result: met

Q: What do you have for `FCFLLLVSFFFV` ?
Result: not met

Q: What would you report for `FFPSFGLFLCPV` ?
Result: met

Q: Same thing, different sequence: `LVYCWFAEYFLV`
Result: not met

Q: Then what about the sequence `VYKSTHKIYILT` ?
Result: met

Q: Thanks! And `RPPPTPRSVLLN` ?
Result: met

Q: Request: `SSLTFTFAILLY`
Result: not met

Q: # iterate: `FSSFLGFIRFFV`
Result: met

Q: Param item: `VVGVVVCWGCGW`
Result: met

Q: Note, next up: `RRVRVVCVIVAA`
Result: met

Q: What do you have for `AFLWSLFVFFRF` ?
Result: not met

Q: Okay, and `LFLVLFCVVGFV` ?
Result: not met

Q: Quick one: `LLLHFMFSIFWF`
Result: met

Q: Continue with `ARRGHNCAAVFL`
Result: met

Q: One more sequence: `LVPVWVGLRVLF`
Result: met

Q: How about this sequence: `VVRAVLCVCASV`
Result: met

Q: Now the same for `PLFFGVQAFGGV`
Result: met

Q: Next record, please: `SGFLNVGYLWVC`
Result: not met

---

Field: protein stability index. Provide a value for each of the sequences that follow.
Tested on: Saccharomyces cerevisiae
Assay: protein stability index of tFT-peptide fusion in wild type (PSI (0-1 scale)); higher = more stable (slower turnover)
Settings: genetic background: wild type
Just the number.

Q: Quick check: protein stability index of `LKIYRQKMNHQN` ?
Result: 0.182

Q: // same read-out, input: `FSMKWTFRYWVN`
Result: 0.0449

Q: And the next one, `FSMRWTYRYWVN` ?
Result: 0.0544

Q: Now consider `PDKRNHLIKLLM` and answer again.
Result: 0.112

Q: `AIWRVGLWRGAS` , same question.
Result: 0.405

Q: Then this sequence: `LVVYLSCVANIN`
Result: 0.0173

Q: Further, for `PDKRNHAIKLLN` ?
Result: 0.186

Q: Let us now turn to `RSLRVLLPLYSR`
Result: 0.609

Q: Now consider `RLIQPDPVQFLN` and answer again.
Result: 0.216

Q: Would you kindly repeat that for `VRGAVGLWRLVG` ?
Result: 0.164

---

Could you please report measured protein stability index for the items listed next?
Test system: Saccharomyces cerevisiae
Experiment: protein stability index of tFT-peptide fusion (C-terminal peptide) (PSI (0-1 scale)); higher = more stable (slower turnover)
Settings: genetic background: wild type; temperature: 30 C
// no unit string in output, number only

Q: Given the entry `ARPLHSIGPAII` , report its measured protein stability index.
Result: 0.658

Q: Would you mind doing `LGRLDYKRMKRA` as well?
Result: 0.533

Q: Next entry: `TKEFKKTNTTGY`
Result: 0.741

Q: Item: `LFCVARARLGCW`
Result: 0.768

Q: What about `GGWTFGSPPYEI` ?
Result: 0.693

Q: Then this sequence: `GFVSLFRLFIRL`
Result: 0.36

Q: And for `YSLQSCGFLANE` ?
Result: 0.642

Q: What about this sequence? `RVCFVTNLVDVT`
Result: 0.721

Q: Next sequence: `FGCGVADLERCL`
Result: 0.686

Q: And the next one, `QWAGGQERTAGK` ?
Result: 0.583

Q: Repeat for the following sequence: `ALFTVGNRPSSL`
Result: 0.701

Q: Could you do the same for `PPPPSLPPPPRS` , please?
Result: 0.693

Q: Thanks! And `YRFFGGYWETGW` ?
Result: 0.744

Q: Next up: `GEPSYLEYSNLV`
Result: 0.765

Q: Now consider `IIIEYNINRKKI` .
Result: 0.611

Q: Please give the result for `VTHNTLLRTKVV` too.
Result: 0.518

Q: Okay, and `RLIPPQTAHEFP` ?
Result: 0.685

Q: Do the same for `EGVWIVMFCGLL` please
Result: 0.504

Q: For `YCSITGIRLLVG` then?
Result: 0.579

---

Field: protein stability index. Provide a value for each of the sequences that follow.
System: Saccharomyces cerevisiae
Test: protein stability index of tFT-peptide fusion (C-terminal peptide) (PSI (0-1 scale)); higher = more stable (slower turnover)
Conditions: genetic background: wild type; temperature: 30 C
I only need the number, thanks.

Q: // query protein stability index value for entry `PPPASPSPSMVF`
Result: 0.693

Q: One more sequence: `IKSDCKDRRKRR`
Result: 0.723

Q: Let us now turn to `VSLLSLGYVFVY`
Result: 0.307

Q: Try this sequence too: `VFAGGCRLYCFR`
Result: 0.624

Q: What do you have for `GVGGGGACRPVG` ?
Result: 0.709

Q: Can you check `PQPPPRSPPSYL` next?
Result: 0.75

Q: Next entry: `PRLLSTYAGSKW`
Result: 0.723

Q: Try this sequence too: `GGGGGECCFLEG`
Result: 0.753

Q: Next sequence up: `TNFSRCFLFRSW`
Result: 0.629

Q: # repeat for `PCSPLSLPPPFP`
Result: 0.722

---

Tested on: Saccharomyces cerevisiae
Assay: protein stability index of tFT-peptide fusion (C-terminal peptide) (PSI (0-1 scale)); higher = more stable (slower turnover)
Conditions: genetic background: das1 deletion; temperature: 30 C
So basically: protein stability index at 0.7 or higher? That is True. Lower than 0.7? That is False.

Q: I'd appreciate it if you could say whether FIAHLILTDALK [ULP1 C-terminal 12 aa] has protein stability index at least equal to 0.7.
Result: False

Q: Same thing, different sequence: KHVSGKILGFVY [RPS22A C-terminal 12 aa]
Result: False

Q: Also check GIILRSCWNPRQ [YOL159C-A C-terminal 12 aa]
Result: True

Q: Could you do the same for NNGSSNNNTQNT [SNF5 C-terminal 12 aa] , please?
Result: False

Q: And what about the sequence LLNSRATQDVVC [VMA3 C-terminal 12 aa] ?
Result: False

Q: Moving on to WDLEQIMSQHGF [PCL1 C-terminal 12 aa]
Result: True

Q: Can you handle AMSARKLSAARK [PCH2 C-terminal 12 aa] next?
Result: False

Q: Next up: DELSLRPATERI [YGR038C-E C-terminal 12 aa]
Result: True

Q: Moving on to EWSSGIPHPEMI [ARA2 C-terminal 12 aa]
Result: True

---

System: Saccharomyces cerevisiae
Experiment: protein stability index of tFT-peptide fusion (C-terminal peptide) (PSI (0-1 scale)); higher = more stable (slower turnover)
Conditions: genetic background: doa10 deletion; temperature: 30 C
measuredParameter: protein stability index
Reply: number alone, nothing else.

Q: I'd like to know its protein stability index. The sequence in question is `TGPLVHLLCCCV`
Result: 0.284

Q: Further, for `ALRLPPPPFSLY` ?
Result: 0.174

Q: Do the same for `VVFVVGAPPVLC` please
Result: 0.323

Q: How about `VGGGGRFWVCVG` ?
Result: 0.212

Q: Query `SVPCWVFLFCLA` next
Result: 0.184

Q: Continue with `LGSYVWVFVYFW`
Result: 0.148

Q: How about `FLCLLSLFFLDF` ?
Result: 0.462

Q: Param item: `LWCLVWGGVWGV`
Result: 0.34

Q: `KFFRSWVLTSPA` ?
Result: 0.41

Q: Also need `GVYRLCLLLLVY` , thanks.
Result: 0.158

Q: What would you report for `LVSSYVPFFFAL` ?
Result: 0.25

Q: Next entry: `ARWRVGLWRGAS`
Result: 0.259

Q: Subsequent entry: `GLGLIRTSRLLC`
Result: 0.148

Q: Same again, this time with `PCVCFIILGMLS`
Result: 0.285

Q: `FSFPIIFFGMFL` ?
Result: 0.426

Q: Moving on to `KSSIGVWTLLIR`
Result: 0.564

Q: Entry to check: `LVPVWVGLRVLF`
Result: 0.347

Q: Further, for `VSFLLYNFLSVF` ?
Result: 0.053

Q: Next: `FLLLVFGLLIDS`
Result: 0.188
